- experimental target: Zap1 (UniProt P47043)
- Sequence: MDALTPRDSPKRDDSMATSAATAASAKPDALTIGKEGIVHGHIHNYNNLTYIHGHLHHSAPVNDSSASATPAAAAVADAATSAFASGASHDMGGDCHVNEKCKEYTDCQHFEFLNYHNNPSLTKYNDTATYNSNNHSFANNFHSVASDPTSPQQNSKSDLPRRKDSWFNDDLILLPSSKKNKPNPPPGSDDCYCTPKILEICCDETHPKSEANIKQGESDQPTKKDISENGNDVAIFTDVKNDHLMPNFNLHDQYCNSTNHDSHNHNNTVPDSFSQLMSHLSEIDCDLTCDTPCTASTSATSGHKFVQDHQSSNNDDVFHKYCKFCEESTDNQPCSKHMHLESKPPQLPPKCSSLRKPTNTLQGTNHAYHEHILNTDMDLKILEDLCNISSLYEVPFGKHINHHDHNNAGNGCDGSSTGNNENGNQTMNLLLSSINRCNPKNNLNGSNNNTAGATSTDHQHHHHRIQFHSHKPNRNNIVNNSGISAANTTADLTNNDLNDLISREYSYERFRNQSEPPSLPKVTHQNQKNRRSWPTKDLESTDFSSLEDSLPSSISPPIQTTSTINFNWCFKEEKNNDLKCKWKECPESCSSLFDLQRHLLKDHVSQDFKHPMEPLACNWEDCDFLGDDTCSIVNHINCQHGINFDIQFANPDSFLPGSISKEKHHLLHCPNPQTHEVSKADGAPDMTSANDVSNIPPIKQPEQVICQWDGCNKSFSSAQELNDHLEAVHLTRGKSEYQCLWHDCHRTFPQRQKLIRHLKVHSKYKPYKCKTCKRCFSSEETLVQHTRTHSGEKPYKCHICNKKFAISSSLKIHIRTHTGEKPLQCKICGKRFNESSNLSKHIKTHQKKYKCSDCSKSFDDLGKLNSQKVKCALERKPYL
- run description: PBM E-score (8-mer binding enrichment) (E-score (-0.5 to 0.5)); higher = stronger / more preferred TF binding
- condition label: protein concentration: 200 nM; construct: GST-full length
Over roughly 33,000 sequences, “E-score (-0.5 to 0.5)” has its median near -0.021; the highest 2% begin near 0.32. The sample as a whole holds a higher share of the highest values than the screen did.
The label depends only on PBM E-score: class 1 if it is at least 0.3, class 0 if it is smaller.

1) GTTACCAA ... class 1
2) CGTACCAC ... class 0
3) GAGTACCA ... class 0
4) AGTACCAC ... class 0
5) GAGTACCC ... class 1
6) ATTCACTC ... class 0
7) GTTACAAA ... class 1
8) AACCCTGA ... class 1
9) GGTACCTA ... class 1
10) AGCCTAAG ... class 0
11) CTTACCAA ... class 0
12) AAGAGCAG ... class 0
13) AGAGGTCA ... class 1
14) CGAGGTCA ... class 1
15) AAGTACCC ... class 1
16) CTCGCGAC ... class 0
17) ATTAATAC ... class 1
18) GTTACAAC ... class 0
19) AAGTTCAC ... class 0
20) ACCCCTGG ... class 0
21) AGCCCTGA ... class 0
22) TTACACAA ... class 0
23) CCCCCTGA ... class 0
24) ACAATGGA ... class 0
25) TGTACCAA ... class 0
26) CCTTGGTC ... class 0
27) TACCGTGA ... class 0
28) CGTACCAA ... class 0
29) GTCGCGAA ... class 0
30) GCTATCGA ... class 0
31) AACCCTGG ... class 1
32) AATCAGTC ... class 0
33) ATTACCAA ... class 0
34) CAGGCTAG ... class 0
35) GGTACCAC ... class 1
36) AATCGTCG ... class 0
37) CTTACAAA ... class 0
38) CATAGATG ... class 0
39) CCTAGCGC ... class 0
40) GAGCGTAC ... class 0
41) TACCCTGA ... class 1
42) GTCGCGAC ... class 1
43) GGTACCAA ... class 1
44) TCAGCGAA ... class 0

The measured values listed here are drawn from the supplement of paper PMC3334620.
